Reference for the values: ChEMBL document CHEMBL1141006

Measured AUC, listed per entry.
Experiment: AUC in rat at 3 mg/kg, po
Format: ADME, organism-based
Design: dose 3 mg/kg, route oral
Details: plasma
measurement_type: AUC (ng·h/mL)

entry_smiles=CSC(=S)N1CC2(CCCCC2)CO/C1=N\c1ccc(Cl)c2ccccc12 measurement_type=AUC observed_result=1210
entry_smiles=CSC(=S)N1CC2(CCCCC2)CS/C1=N\c1cccc2ccccc12 measurement_type=AUC observed_result=1390

---

Molecular target: Cannabinoid receptor 1 (Mus musculus)
Sequence (P47746 whole entry): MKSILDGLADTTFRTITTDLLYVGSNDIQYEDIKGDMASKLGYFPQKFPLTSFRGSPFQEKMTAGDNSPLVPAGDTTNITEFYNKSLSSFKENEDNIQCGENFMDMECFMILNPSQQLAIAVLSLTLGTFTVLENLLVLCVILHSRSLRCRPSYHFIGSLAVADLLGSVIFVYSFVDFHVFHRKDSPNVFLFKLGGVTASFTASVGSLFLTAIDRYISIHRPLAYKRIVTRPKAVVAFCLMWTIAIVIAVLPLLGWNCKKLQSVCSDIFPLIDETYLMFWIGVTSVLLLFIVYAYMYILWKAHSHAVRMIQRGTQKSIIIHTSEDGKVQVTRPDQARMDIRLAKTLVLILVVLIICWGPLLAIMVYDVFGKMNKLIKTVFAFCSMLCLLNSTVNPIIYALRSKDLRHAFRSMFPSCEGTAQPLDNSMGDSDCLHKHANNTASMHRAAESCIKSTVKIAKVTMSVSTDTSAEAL
measurement_type: Ki (nM)

entry_smiles=CSC(=S)N1CC2(CCCCC2)CO/C1=N\c1ccc(Cl)c2ccccc12 value_units=nM observed_result=0.7

---

Assay: Total clearance in rat at 2 mg/kg, iv and 3 mg/kg, po
Assay type: ADME, organism-based
Conditions: in vivo
measurement_type: clearance

entry_smiles=CSC(=S)N1CC2(CCCCC2)CO/C1=N\c1ccc(Cl)c2ccccc12 observed_result="14.7 mL/min/kg"

---

Measured bioavailability, listed per entry.
Assay: Oral bioavailability in rat at 3 mg/kg
Type: ADME, organism-based
Details: in vivo
measurement_type: bioavailability (%)

entry_smiles=CSC(=S)N1CC2(CCCCC2)CS/C1=N\c1cccc2ccccc12 measurement_type=bioavailability value_units=% observed_result=80
entry_smiles=CSC(=S)N1CC2(CCCCC2)CO/C1=N\c1ccc(Cl)c2ccccc12 measurement_type=bioavailability value_units=% observed_result=35

---

Assay: Half life in rat at 2 mg/kg, iv and 3 mg/kg, po
Type: ADME, organism-based
Conditions: in vivo
measurement_type: half-life (h)

entry_smiles=CSC(=S)N1CC2(CCCCC2)CO/C1=N\c1ccc(Cl)c2ccccc12 observed_result=2.2

---

Target: Cannabinoid receptor 1 (Homo sapiens, UniProt P21554)
Sequence (P21554 whole entry): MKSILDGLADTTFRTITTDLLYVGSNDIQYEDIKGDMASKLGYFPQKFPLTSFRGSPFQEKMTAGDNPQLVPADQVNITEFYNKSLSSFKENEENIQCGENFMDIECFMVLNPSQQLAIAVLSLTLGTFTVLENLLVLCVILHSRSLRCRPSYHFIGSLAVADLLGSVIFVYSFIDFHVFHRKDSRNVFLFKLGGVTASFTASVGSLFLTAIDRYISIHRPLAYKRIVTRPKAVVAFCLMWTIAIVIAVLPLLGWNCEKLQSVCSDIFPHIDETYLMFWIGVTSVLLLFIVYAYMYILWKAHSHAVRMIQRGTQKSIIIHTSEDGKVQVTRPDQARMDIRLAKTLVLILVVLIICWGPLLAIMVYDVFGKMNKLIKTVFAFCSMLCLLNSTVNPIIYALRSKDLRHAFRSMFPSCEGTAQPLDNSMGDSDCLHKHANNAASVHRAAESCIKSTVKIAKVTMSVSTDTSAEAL
Experiment: Binding affinity to human CB1 receptor expressed in CHO cells assessed as inhibition of cAMP accumulation
Type: functional, cell-based
pIC50: −log10 of the molar value.
Measured pIC50, listed per entry.
measurement_type: pIC50

entry_smiles=CSC(=S)N1CC2(CCCCC2)CO/C1=N\c1ccc(Cl)c2ccccc12 target_system="Cannabinoid receptor 1 (Homo sapiens, UniProt P21554)" observed_result=8.10
entry_smiles=CSC(=S)N1CC2(CCCCC2)CS/C1=N\c1cccc2ccccc12 target_system="Cannabinoid receptor 1 (Homo sapiens, UniProt P21554)" observed_result=8.00

---

Target: UniProtKB P34972
Sequence (P34972 whole entry): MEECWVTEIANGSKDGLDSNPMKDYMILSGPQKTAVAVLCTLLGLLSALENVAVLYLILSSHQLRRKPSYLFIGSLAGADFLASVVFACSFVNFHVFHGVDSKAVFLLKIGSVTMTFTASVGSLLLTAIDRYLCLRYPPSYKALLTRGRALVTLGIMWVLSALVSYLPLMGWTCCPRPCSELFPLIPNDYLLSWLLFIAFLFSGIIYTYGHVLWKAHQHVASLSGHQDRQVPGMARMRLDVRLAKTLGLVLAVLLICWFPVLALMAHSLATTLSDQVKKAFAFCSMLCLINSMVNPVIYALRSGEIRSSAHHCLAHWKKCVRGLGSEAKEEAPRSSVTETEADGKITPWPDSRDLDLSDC
Test: Binding affinity to human CB2 receptor
The label Condition met is reserved for Ki strictly under 2 nM; Condition not met covers values equal to or above it.

entry_smiles=CSC(=S)N1CC2(CCCCC2)CO/C1=N\c1nc(C(C)(C)C)cs1 label="Condition met"
entry_smiles=CSC(=S)N1CC2(CCCCC2)CO/C1=N\c1ccc(Cl)c2ccccc12 label="Condition met"
entry_smiles=CSC(=S)N1CC2(CCCCC2)CO/C1=N\c1ccccc1 label="Condition not met"
entry_smiles=CSC(=S)N1CC2(CCCCC2)CO/C1=N\c1ccc([N+](=O)[O-])c2ccccc12 label="Condition not met"
entry_smiles=CSC(=O)N1CC2(CCCCC2)CO/C1=N\c1cccc2ccccc12 label="Condition not met"
entry_smiles=CSC(=S)N1CC2(CCCCC2)CO/C1=N\c1cc(C(C)(C)C)no1 label="Condition met"
entry_smiles=CSC(=S)N1CC2(CCCCC2)CO/C1=N\c1ccc(N(C)C)c2ccccc12 label="Condition not met"
entry_smiles=CSC(=O)N1CC2(CCCCC2)CN/C1=N\c1cccc2ccccc12 label="Condition not met"
entry_smiles=COc1ccccc1/N=C1\OCC2(CCCCC2)CN1C(=S)SC label="Condition met"
entry_smiles=CSC(=S)N1CC2(CCCCC2)CO/C1=N\c1cc(C(C)(C)C)on1 label="Condition not met"
entry_smiles=CSC(=S)N1CC2(CCCCC2)CO/C1=N\c1ccc(Cl)c2c1CCCC2 label="Condition not met"
entry_smiles=CSC(=S)N1CC2(CCCCC2)CO/C1=N\c1ccc(C#N)c2ccccc12 label="Condition met"
entry_smiles=CSC(=S)N1CC2(CCCCC2)CO/C1=N\c1ccc(C#N)c2c1CCCC2 label="Condition met"
entry_smiles=CSC(=S)N1CC2(CCCCC2)CO/C1=N\c1cccc2c1CCCC2 label="Condition met"
entry_smiles=CCC(CC)(CC)c1cc(/N=C2\OCC3(CCCCC3)CN2C(=S)SC)on1 label="Condition met"
entry_smiles=CSC(=S)N1CC2(CCCCC2)CO/C1=N\c1cccc2nonc12 label="Condition not met"
entry_smiles=CSC(=S)N1CC2(CCCCC2)CO/C1=N\c1ccc(F)c2ccccc12 label="Condition met"
entry_smiles=CSC(=S)N1CC2(CCCCC2)CO/C1=N\c1cccc2ccccc12 label="Condition met"
entry_smiles=CSC(=O)N1CC2(CCCCC2)CS/C1=N\c1cccc2ccccc12 label="Condition met"

---

# Ki per entry for Cannabinoid receptor 1 (Homo sapiens)
measurement_type: Ki

entry_smiles=CSC(=S)N1CC2(CCCCC2)CO/C1=N\c1ccc(N(C)C)c2ccccc12 observed_result="4.9 nM"
entry_smiles=COc1ccccc1/N=C1\OCC2(CCCCC2)CN1C(=S)SC observed_result="59 nM"
entry_smiles=CSC(=S)N1CC2(CCCCC2)CO/C1=N\c1ccccc1 observed_result="515 nM"
entry_smiles=CSC(=S)N1CC2(CCCCC2)CO/C1=N\c1ccc(C#N)c2ccccc12 observed_result="9.2 nM"
entry_smiles=CSC(=O)N1CC2(CCCCC2)CN/C1=N\c1cccc2ccccc12 observed_result="624 nM"
entry_smiles=CSC(=S)N1CC2(CCCCC2)CO/C1=N\c1cccc2c1CCCC2 observed_result="14 nM"
entry_smiles=CSC(=S)N1CC2(CCCCC2)CO/C1=N\c1cccc2nonc12 observed_result="152 nM"
entry_smiles=CSC(=S)N1CC2(CCCCC2)CO/C1=N\c1cc(C(C)(C)C)on1 observed_result="17 nM"
entry_smiles=CSC(=S)N1CC2(CCCCC2)CO/C1=N\c1ccc(F)c2ccccc12 observed_result="4.9 nM"
entry_smiles=CCC(CC)(CC)c1cc(/N=C2\OCC3(CCCCC3)CN2C(=S)SC)on1 observed_result="1 nM"
entry_smiles=CSC(=S)N1CC2(CCCCC2)CO/C1=N\c1ccc(C#N)c2c1CCCC2 observed_result="101 nM"
entry_smiles=CSC(=S)N1CC2(CCCCC2)CO/C1=N\c1ccc(Cl)c2ccccc12 observed_result="3.4 nM"
entry_smiles=CSC(=O)N1CC2(CCCCC2)CO/C1=N\c1cccc2ccccc12 observed_result="31 nM"
entry_smiles=CSC(=S)N1CC2(CCCCC2)CO/C1=N\c1nc(C(C)(C)C)cs1 observed_result="1 nM"
entry_smiles=CSC(=S)N1CC2(CCCCC2)CO/C1=N\c1cccc2ccccc12 observed_result="9.3 nM"
entry_smiles=CSC(=S)N1CC2(CCCCC2)CO/C1=N\c1cc(C(C)(C)C)no1 observed_result="0.9 nM"
entry_smiles=CSC(=S)N1CC2(CCCCC2)CO/C1=N\c1ccc(Cl)c2c1CCCC2 observed_result="76 nM"
entry_smiles=CSC(=S)N1CC2(CCCCC2)CO/C1=N\c1ccc([N+](=O)[O-])c2ccccc12 observed_result="14 nM"
entry_smiles=CSC(=O)N1CC2(CCCCC2)CS/C1=N\c1cccc2ccccc12 observed_result="49 nM"

---

Test: Cmax in rat at 2 mg/kg, iv and 3 mg/kg, po
Assay type: ADME, organism-based
Conditions: in vivo
Measured Cmax, listed per entry.
measurement_type: Cmax (ng/mL)

entry_smiles=CSC(=S)N1CC2(CCCCC2)CO/C1=N\c1ccc(Cl)c2ccccc12 observed_result=280
entry_smiles=CSC(=S)N1CC2(CCCCC2)CS/C1=N\c1cccc2ccccc12 observed_result=160
